This section presents compounds with their documented Ki values.
# systemName: Ornithine decarboxylase (Bos taurus, UniProt P27117)
# Sequence (P27117 whole entry): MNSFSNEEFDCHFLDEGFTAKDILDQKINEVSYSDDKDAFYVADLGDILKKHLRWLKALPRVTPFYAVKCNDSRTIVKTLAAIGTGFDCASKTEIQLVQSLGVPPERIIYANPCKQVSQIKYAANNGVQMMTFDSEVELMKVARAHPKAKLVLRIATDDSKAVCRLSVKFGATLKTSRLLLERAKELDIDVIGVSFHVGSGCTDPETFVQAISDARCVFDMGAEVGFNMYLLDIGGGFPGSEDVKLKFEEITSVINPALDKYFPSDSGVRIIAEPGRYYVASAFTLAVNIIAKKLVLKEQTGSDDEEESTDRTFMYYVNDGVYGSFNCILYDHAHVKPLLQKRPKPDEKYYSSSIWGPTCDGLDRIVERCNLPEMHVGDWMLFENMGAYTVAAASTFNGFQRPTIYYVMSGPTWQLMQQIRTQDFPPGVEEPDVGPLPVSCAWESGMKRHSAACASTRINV
reportedEndpoint: Ki (mM)

# compound, reportedResult
rows = [
    ("C[C@@](N)(CCCN)C(=O)O", 1),
    ("NCCCCNCCCN [SPERMIDINE]", 3),
    ("CC(N)(CCCNCCCN)C(=O)O (racemic; 8)", 5.5),
]
